Field: Papp A→B at 90 min, 50 μM. Provide a value for each of the compounds that follow.
Assay: Bidirectional transport across the Caco-2 cell monolayer (Papp, efflux ratio, mass balance)
Conditions: human, Caco-2, pH 7.4
Numbers only, in ×10⁻⁶ cm/s.

# count of solved cases: 3
{"columns": ["compound", "displayUnit", "reading"],
 "data": [
  ["O=c1c(-c2ccc(O)c(O)c2)coc2c(C3OC(CO)C(O)C(O)C3O)c(O)ccc12 (stereo not shown) [Compound 1, 3′-hydroxypuerarin]", "×10⁻⁶ cm/s", 0.45],
  ["O=c1c(-c2ccc(O)cc2)coc2c([C@@H]3O[C@H](CO)[C@@H](O)[C@H](O)[C@H]3O)c(O)ccc12", "×10⁻⁶ cm/s", 0.68],
  ["O=c1c(-c2ccc(O)cc2)coc2c([C@@H]3O[C@H](CO[C@@H]4OC[C@](O)(CO)[C@H]4O)[C@@H](O)[C@H](O)[C@H]3O)c(O)ccc12", "×10⁻⁶ cm/s", 0.29]
]}

Please give Papp A→B at 90 min, 50 μM for each item listed below.
1. COc1ccc(C2=CC(=O)OC2Cc2ccc(O)cc2)c(OC2OC(CO)C(O)C(O)C2O)c1 (racemic) [Compound 8, (±)-puerol B-2″-O-glucopyranoside]
2. O=c1c(-c2ccc(O)cc2)coc2cc(O)cc(O)c12
3. COc1ccc(-c2coc3cc(O)ccc3c2=O)cc1
4. O=C1C=C(c2ccc(O)cc2O)[C@@H](Cc2ccc(O)cc2)O1

Result:
1.29
32.4
30.6
6.27

Please give Papp A→B at 90 min, 50 μM for each item listed below.
1. COc1cc(-c2coc3c(C4OC(CO)C(O)C(O)C4O)c(O)ccc3c2=O)ccc1O (stereo not shown)
2. O=c1c(-c2ccc(O)cc2)coc2cc(O[C@@H]3O[C@H](CO)[C@@H](O)[C@H](O)[C@H]3O)ccc12

Result:
0.75
0.4

Problem: For O=c1c(-c2ccc(O)c(O)c2)coc2c([C@@H]3O[C@H](CO[C@@H]4OC[C@](O)(CO)[C@H]4O)[C@@H](O)[C@H](O)[C@H]3O)c(O)ccc12 [Compound 3, 3′-hydroxymirificin] , write its Papp A→B at 90 min, 50 μM.
Result: 0.97

----------
Experiment: in vitro
Conditions: human, Caco-2, pH 7.4
valueType: Papp A→B at 90 min, 50 μM (×10⁻⁶ cm/s)
Give bare numbers, in ×10⁻⁶ cm/s.

Problem: For O=c1c(-c2ccc(O)cc2)coc2cc(O)ccc12 , write its Papp A→B at 90 min, 50 μM.
Result: 25.5

----------
Assay: Bidirectional transport across the Caco-2 cell monolayer (Papp, efflux ratio, mass balance)
Details: human, Caco-2, pH 7.4
Field: efflux ratio at 1 h, 50 μM. Provide a value for each of the molecules that follow.
Give bare numbers.

# count of solved cases: 5
{"columns": ["molecule", "efflux ratio at 1 h, 50 μM"],
 "data": [
  ["O=c1c(-c2ccc(O)c(O)c2)coc2c([C@@H]3O[C@H](CO[C@@H]4OC[C@](O)(CO)[C@H]4O)[C@@H](O)[C@H](O)[C@H]3O)c(O)ccc12 [Compound 3, 3′-hydroxymirificin]", 0.55],
  ["O=c1c(-c2ccc(O)cc2)coc2c([C@@H]3O[C@H](CO[C@@H]4OC[C@](O)(CO)[C@H]4O)[C@@H](O)[C@H](O)[C@H]3O)c(O)ccc12", 0.79],
  ["O=C1C=C(c2ccc(O)cc2O)[C@@H](Cc2ccc(O)cc2)O1", 1.32],
  ["COc1ccc(-c2coc3cc(O)ccc3c2=O)cc1", 0.87],
  ["O=c1c(-c2ccc(O)cc2)coc2c([C@@H]3O[C@H](CO)[C@@H](O)[C@H](O)[C@H]3O)c(O)ccc12", 0.6]
]}

For the next question, use this molecule.
Problem: For O=c1c(-c2ccc(O)cc2)coc2cc(O[C@@H]3O[C@H](CO)[C@@H](O)[C@H](O)[C@H]3O)ccc12 , write its efflux ratio at 1 h, 50 μM.
Result: 0.92

----------
Assay: Bidirectional transport across the Caco-2 cell monolayer (Papp, efflux ratio, mass balance)
Details: human, Caco-2, pH 7.4, Total Recovery (%) AP→BL, mass balance, total amount in AP and BL sides; incubation up to 90 min; n = 3
valueType: recovery at 90 min, 50 μM (%)
Numbers only, in %.

# count of solved cases: 5
{"columns": ["compound", "recovery at 90 min, 50 μM / %"],
 "data": [
  ["O=c1c(-c2ccc(O)c(O)c2)coc2c([C@@H]3O[C@H](CO[C@@H]4OC[C@](O)(CO)[C@H]4O)[C@@H](O)[C@H](O)[C@H]3O)c(O)ccc12 [Compound 3, 3′-hydroxymirificin]", 101],
  ["O=c1c(-c2ccc(O)cc2)coc2c([C@@H]3O[C@H](CO)[C@@H](O)[C@H](O)[C@H]3O)c(O)ccc12", 96.6],
  ["O=c1c(-c2ccc(O)cc2)coc2c([C@@H]3O[C@H](CO[C@@H]4OC[C@](O)(CO)[C@H]4O)[C@@H](O)[C@H](O)[C@H]3O)c(O)ccc12", 99.4],
  ["O=c1c(-c2ccc(O)c(O)c2)coc2c(C3OC(CO)C(O)C(O)C3O)c(O)ccc12 (stereo not drawn) [Compound 1, 3′-hydroxypuerarin]", 98.1],
  ["O=C1C=C(c2ccc(O)cc2O)[C@@H](Cc2ccc(O)cc2)O1", 86]
]}

For the next question, use this compound.
Problem: For COc1ccc(C2=CC(=O)OC2Cc2ccc(O)cc2)c(OC2OC(CO)C(O)C(O)C2O)c1 (racemic) [Compound 8, (±)-puerol B-2″-O-glucopyranoside] , write its recovery at 90 min, 50 μM.
Result: 77

----------
Experiment: in vitro
Conditions: human, Caco-2, pH 7.4, Absorption class by Papp
valueType: Papp at 1 h, 50 μM

Problem: For O=c1c(-c2ccc(O)cc2)coc2cc(O)ccc12 , write its Papp at 1 h, 50 μM.
Result: > 10 ×10⁻⁶ cm/s

----------
Experiment: Bidirectional transport across the Caco-2 cell monolayer (Papp, efflux ratio, mass balance)
Details: human, Caco-2, pH 7.4, Total Recovery (%) BL→AP, mass balance, total amount in AP and BL sides; incubation up to 90 min; n = 3
The threshold is inclusive: recovery at 90 min, 50 μM of exactly 90% counts as criterion met; values below receive criterion not met.

The following compounds have reported results that may help.
{"columns": ["compound", "classLabel"],
 "data": [
  ["COc1cc(-c2coc3c(C4OC(CO)C(O)C(O)C4O)c(O)ccc3c2=O)ccc1O (stereo not drawn)", "criterion not met"],
  ["O=c1c(-c2ccc(O)cc2)coc2c([C@@H]3O[C@H](CO[C@@H]4OC[C@](O)(CO)[C@H]4O)[C@@H](O)[C@H](O)[C@H]3O)c(O)ccc12", "criterion met"],
  ["O=c1c(-c2ccc(O)c(O)c2)coc2c(C3OC(CO)C(O)C(O)C3O)c(O)ccc12 (stereo not drawn) [Compound 1, 3′-hydroxypuerarin]", "criterion met"]
]}

Problem: Exam item: decide whether the reported recovery at 90 min, 50 μM for O=c1c(-c2ccc(O)c(O)c2)coc2c([C@@H]3O[C@H](CO[C@@H]4OC[C@](O)(CO)[C@H]4O)[C@@H](O)[C@H](O)[C@H]3O)c(O)ccc12 [Compound 3, 3′-hydroxymirificin] is at least 90%.
Result: criterion met

Problem: Exam item: decide whether the reported recovery at 90 min, 50 μM for O=c1c(-c2ccc(O)cc2)coc2c([C@@H]3O[C@H](CO)[C@@H](O)[C@H](O)[C@H]3O)c(O)ccc12 is at least 90%.
Result: criterion met

----------
Experiment: Bidirectional transport across the Caco-2 cell monolayer (Papp, efflux ratio, mass balance)
Details: human, Caco-2, pH 7.4, Absorption class by Papp, Caco-2 monolayer; classes after ref 18
Field: Papp at 1 h, 50 μM. Provide a value for each of the molecules that follow.

{"columns": ["molecule", "valueType", "reading"],
 "data": [
  ["COc1ccc(-c2coc3cc(O)ccc3c2=O)cc1 [Compound 12, formononetin]", "Papp at 1 h, 50 μM", "> 10 ×10⁻⁶ cm/s"]
]}

Problem: For O=c1c(-c2ccc(O)cc2)coc2cc(O)cc(O)c12 [Compound 11, genistein] , write its Papp at 1 h, 50 μM.
Result: > 10 ×10⁻⁶ cm/s

----------
Assay: Bidirectional transport across the Caco-2 cell monolayer (Papp, efflux ratio, mass balance)
Conditions: human, Caco-2, pH 7.4
valueType: Papp A→B at 1 h (×10⁻⁶ cm/s)
Give bare numbers, in ×10⁻⁶ cm/s.

Problem: For CC(C)NCC(O)COc1cccc2ccccc12 (stereo not shown) [propranolol, reference compound] , write its Papp A→B at 1 h.
Result: 33.7

----------
Test: in vitro
Details: human, Caco-2, pH 7.4
valueType: Papp B→A at 90 min, 50 μM (×10⁻⁶ cm/s)
Give bare numbers, in ×10⁻⁶ cm/s.

Problem: For O=c1c(-c2ccc(O)cc2)coc2cc(O)ccc12 , write its Papp B→A at 90 min, 50 μM.
Result: 26.2
